Biological target: CCL13 (Homo sapiens, UniProt Q99616)
Sequence (Q99616 17-98, species assumed): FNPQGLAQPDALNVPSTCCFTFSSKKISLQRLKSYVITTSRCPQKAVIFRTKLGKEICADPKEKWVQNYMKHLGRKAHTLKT
Assay: Chemokine glycan microarray binding assay
Conditions: maximum RFU set as 100% binding, average across 2 glycan concentrations and 3 chemokine dilutions (n=6)
Procedure: Microarray Studies: The compounds of the present invention were covalently immobilized on epoxy group collated glass slides. […] Bound antibodies were detected by incubating with biotinylated secondary detections (1 ng/μL) diluted in PBS, 200 μL/block at RT for 1 h. Slides were washed 4 times with PBST, then with PBS (without Tween-20) for 2 min and biotinylated antibodies were detected with Cy3-SA (1.2 μg/mL). […]
Please go through the items and note down their mean rank binding to CCL13.
Reply with the number and its unit after it.

Here's what some known entries look like.
Compound	Measurement target	mean rank binding to CCL13
CC(=O)N[C@H]1[C@@H](O[C@H]2[C@H](O)[C@@H](OP(=O)(O)O)[C@H](OCCCN)O[C@H]2C(=O)O)O[C@H](COP(=O)(O)O)[C@@H](O[C@@H]2O[C@@H](C(=O)O)[C@@H](O[C@H]3O[C@H](COP(=O)(O)O)[C@@H](O)[C@H](O)[C@H]3NC(C)=O)[C@H](O)[C@H]2OP(=O)(O)O)[C@@H]1O	CCL13 (Homo sapiens, UniProt Q99616)	87%
NCCCO[C@@H]1OC(C(=O)O)[C@@H](O[C@H]2OC(COS(=O)(=O)O)[C@@H](O[C@@H]3OC(C(=O)O)[C@@H](O[C@H]4OC(COS(=O)(=O)O)[C@@H](O)C(O)C4N)C(O)C3OS(=O)(=O)O)C(O)C2N)C(O)C1OS(=O)(=O)O (stereo partly drawn)	CCL13 (Homo sapiens, UniProt Q99616)	74%

Consider now this further compound.
Measured mean rank binding to CCL13, NCCCO[C@@H]1O[C@@H](C(=O)O)[C@@H](O[C@H]2O[C@H](CO)[C@@H](O[C@@H]3O[C@@H](C(=O)O)[C@@H](O[C@H]4O[C@H](CO)[C@@H](O)[C@H](OS(=O)(=O)O)[C@H]4N)[C@H](O)[C@H]3OS(=O)(=O)O)[C@H](OS(=O)(=O)O)[C@H]2N)[C@H](O)[C@H]1OS(=O)(=O)O : 64%
